- assay procedure: RP, Waters ACQUITY UPLC BEH C18, 100 × 1 mm, 1.7 µm, 50 °C, 0.3 mL/min, estimated dead time 0.17 min; A: water + 10 mM ammonium bicarbonate; B: 10% water + 90% methanol + 10 mM ammonium bicarbonate; gradient (min/%B) 0/0 15/100 21/100 22/0 30/0
- measurement context: stereoisomer not certain

compound | LC retention time / min
CC(CCc1ccccc1)NCC(O)c1ccc(O)c(C(N)=O)c1 (centres undefined) | 12.8
CNC(=O)Oc1cc(C)c(N(C)C)c(C)c1 [Mexacarbate] | 14.8
CC(C)(c1ccccc1)c1ccc(O)cc1 | 15.7
CC(C)(C)NC(=O)C1CCC2C3CCC4NC(=O)C=CC4(C)C3CCC12C (centres undefined) [Finasteride] | 14.9
Oc1ccc(Cl)cc1Cc1cc(Cl)ccc1O | 15.1
CCOP(=O)(SC(C)CC)N1CCSC1=O (centres undefined) [Fosthiazate] | 12.8
CC(=O)CCCCn1c(=O)c2c(ncn2C)n(C)c1=O | 9.98
CCC(=NOCC=CCl)C1=C(O)CC(C2CCOCC2)CC1=O (single isomer, unassigned; peak1) [Tepraloxydim Peak1] | 9.25
CN(C)S(=O)(=O)Nc1ccccc1 | 10.7

###

- assay procedure: RP, Waters ACQUITY UPLC BEH C18, 100 × 1 mm, 1.7 µm, 50 °C, 0.3 mL/min, estimated dead time 0.17 min; A: water + 10 mM ammonium bicarbonate; B: 10% water + 90% methanol + 10 mM ammonium bicarbonate; gradient (min/%B) 0/0 15/100 21/100 22/0 30/0
- measurement context: stereoisomer not certain
Reported LC retention time is given for each of the following compounds.

compound | LC retention time [min]
CC(=O)Nc1c(C)n(C)n(-c2ccccc2)c1=O [N-Acetyl-4-aminoantipyrine] | 7.94
CCCCCCCCn1sccc1=O [2-Octyl-4-isothiazolin-3-one] | 15.3
COc1nc(C)nc(NC(=O)NS(=O)(=O)c2ccccc2Cl)n1 [Chlorsulfuron] | 9.11
CCCC(CCC)C(=O)O [Valproic acid] | 10.2
NC(=O)N1c2ccccc2C=Cc2cc(O)ccc21 [2-Hydroxycarbamazepine] | 10.8
Nc1cccc2c(N)cccc12 [1,5-Naphthalenediamine] | 6.92
CCCCCCCCCC[N+](C)(C)[O-] [N,N-Dimethyldecylamine-N-oxide] | 15.2
CN(C)S(=O)(=O)c1ccc(N)cc1 [4-Amino-N,N-dimethylbenzenesulfonamide] | 8.01
COc1cc2c3c(c1OC)-c1ccccc1CC3N(C)CC2 (single isomer, unassigned; (-)) [(-)-Nuciferine] | 15.6
O=S(=O)(O)ON=C(Cc1c[nH]c2ccccc12)SC1OC(CO)C(O)C(O)C1O (stereo unspecified) [Glucobrassicin] | 6.03
C=C1C(=O)OC2CCN3CC=C(COC(=O)C(C)(O)C(C)C1C)C23 (stereo unspecified) [Senecivernine] | 12.7
CCOP(=S)(OCC)SCn1nnc2ccccc2c1=O [Ethyl azinphos] | 15
CC1=C(C(=O)O)N2C(=O)C(NC(=O)C(N)c3ccccc3)C2SC1 (stereo unspecified) [Cefalexin] | 7.52
COC(=O)c1ccccc1S(=O)(=O)NC(=O)N(C)c1nc(C)nc(OC)n1 [Tribenuron-methyl] | 9.4
c1ccc2sc(NC3CCCCC3)nc2c1 [N-cyclohexyl-2-benzothiazole-amine] | 15.8
COc1ncc(F)c2nc(S(=O)(=O)Nc3c(F)cccc3F)nn12 [Florasulam] | 9
CNC(=O)Oc1cccc2c1OC(C)(C)C2O (stereo unspecified) [3-Hydroxycarbofuran] | 9.47
CC#Cc1cc(C)nc(Nc2ccccc2)n1 [Mepanipyrim] | 15
CC1C(=O)OC2CCN3CC=C(COC(=O)C(C)(O)C1(C)O)C23 (stereo unspecified) [Monocrotaline] | 8.97
CCCCNc1ccc(C(=O)OCCN(C)C)cc1 [Tetracain] | 15.2
CC(C)N(C(=O)CCl)c1ccccc1 [Propachlor] | 13.3
CCCCCSCCOCCOCCOCCO [3,6,9-Trioxa-12-thia-heptadecanol] | 14.6
CCCCOCCOCCOCCO [Triethylene Glycol Monobutyl Ether] | 11.5
Cc1ccnc(NS(=O)(=O)c2ccc(N)cc2)n1 [Sulfamerazine] | 5.61
O=C1NC(=O)C2CC=CCC12 (stereo unspecified) [Tetrahydrophthalimide] | 5.35
OC(Cc1ccccc1Cl)(Cn1cncn1)C1(Cl)CC1 (stereo unspecified) [Prothioconazole-desthio] | 15.3
CCN(CC)CC#CCOC(=O)C(O)(c1ccccc1)C1CCCCC1 (stereo unspecified) [Oxybutynin] | 17.2
Cn1sc(Cl)cc1=O [Methylchloroisothiazolinone] | 6.48
C#CC1(O)CCC2C3CCc4cc(OC)ccc4C3CCC21C (stereo unspecified) [Mestranol] | 14.3
O=C(C1CCCCC1)N1CC(=O)N2CCc3ccccc3C2C1 (stereo unspecified) [Praziquantel] | 14.3
CCOC(=O)C1=NOC(c2ccccc2)(c2ccccc2)C1 [Isoxadifen-ethyl] | 15.7
CCCCCCCCSCCOCCO [2(2(octylsulfanyl)ethoxy)ethanol] | 16.9
CN1C2CC(OC(=O)C(CO)c3ccccc3)CC1C1OC12 (single isomer, unassigned; (-)) [(-)-Scopolamine] | 11.2
CC(C)C(=O)Nc1ccc([N+](=O)[O-])c(C(F)(F)F)c1 [Flutamide] | 14.3
O=C1Cc2cc(CCN3CCN(c4nsc5ccccc45)CC3)c(Cl)cc2N1 [Ziprasidone] | 16.1
O=C(O)Cc1ccccc1Nc1c(Cl)cc(O)cc1Cl [4-Hydroxy-Diclofenac] | 10.7
